All figures here come from patent US5380745A.

Assay: Water solubility of PF1022 substance (elution into buffer, HPLC)
Format: physicochemical
Conditions: aqueous buffer; McDougall buffer (pH 6.8), 24 hr, 40 °C, 50 mg PF1022 substance in 50 ml; read-out: Concentration of PF1022 substance
outcome.measure: solubility at 24 h

Query block: Fill in the blank: the reported solubility at 24 h of CC(C)CC1C(=O)OC(Cc2ccccc2)C(=O)N(C)C(CC(C)C)C(=O)OC(C)C(=O)N(C)C(CC(C)C)C(=O)OC(Cc2ccccc2)C(=O)N(C)C(CC(C)C)C(=O)OC(C)C(=O)N1C (stereo not shown) [PF1022 substance] is ____.
Result block: < 1 µg/mL
